- measurement-target: T1, recombinant CD3D&E protein (human CD3-his tag) (human, UniProt P04234 22-105; P07766 23-126, limits assumed)
- T1 construct: Analyte in Biacore; also called CD3D&E-His; CD3d&ε-His
- T1 sequence (P04234 22-105 limits assumed, chain 1 of 2): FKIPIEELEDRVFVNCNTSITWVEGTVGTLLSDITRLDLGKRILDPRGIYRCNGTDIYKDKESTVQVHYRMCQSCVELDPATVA
- T1 sequence (P07766 23-126 limits assumed, chain 2 of 2): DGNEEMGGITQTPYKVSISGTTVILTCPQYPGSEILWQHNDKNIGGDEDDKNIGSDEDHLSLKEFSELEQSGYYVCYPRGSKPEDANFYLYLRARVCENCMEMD
- measurement-protocol: SPR Biacore, Ab captured on Protein A;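 note: humanized antibodies on a Protein A chip, human CD3-his analyte flowed over in serial dilutions for 3 min, dissociation tracked 120–360 s on a Biacore T200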
metric: koff (s⁻¹)

binder	recorded-value
Hu153A6B1-12 (antibody, V domains shown, humanized mAb) VH: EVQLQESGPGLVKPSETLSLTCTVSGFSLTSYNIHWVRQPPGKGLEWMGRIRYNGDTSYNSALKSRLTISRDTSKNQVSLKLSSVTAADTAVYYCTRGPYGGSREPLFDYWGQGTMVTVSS VL: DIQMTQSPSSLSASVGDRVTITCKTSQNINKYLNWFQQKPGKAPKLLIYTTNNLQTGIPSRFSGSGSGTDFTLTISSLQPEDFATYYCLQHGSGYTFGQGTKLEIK	0.00107
Hu192A7B9-11 (antibody, V domains shown, humanized mAb) VH: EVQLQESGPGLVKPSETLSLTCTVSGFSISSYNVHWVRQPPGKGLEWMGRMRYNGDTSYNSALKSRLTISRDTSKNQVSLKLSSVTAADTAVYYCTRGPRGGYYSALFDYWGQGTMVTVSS VL: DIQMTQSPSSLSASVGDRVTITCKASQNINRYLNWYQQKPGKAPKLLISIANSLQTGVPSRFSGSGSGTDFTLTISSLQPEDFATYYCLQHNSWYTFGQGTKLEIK	0.00449
Hu155A9B1-12 (antibody, V domains shown, humanized mAb) VH: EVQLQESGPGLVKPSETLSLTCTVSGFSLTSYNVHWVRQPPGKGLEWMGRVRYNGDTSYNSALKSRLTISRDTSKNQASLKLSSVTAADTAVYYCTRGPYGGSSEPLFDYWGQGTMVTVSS VL: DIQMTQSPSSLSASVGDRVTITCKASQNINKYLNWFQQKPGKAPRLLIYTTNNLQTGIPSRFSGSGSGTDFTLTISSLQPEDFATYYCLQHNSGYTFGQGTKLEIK	0.00286

The reported measurements were obtained from patent US20240417469A1.
